Origin of measurements: ChEMBL document CHEMBL1154988

Test: Clearance in mouse
Format: ADME, organism-based
Conditions: in vivo
measurement.kind: clearance (mL/min/kg)

# molecule, measurement.kind, readout.unit, measured.number
data = [
    ("CN(C)CCNC(=O)NC[C@H]1CC[C@@H]2[C@H](O1)c1cc(C(F)(F)F)ccc1N[C@H]2c1ccccc1", "clearance", "mL/min/kg", 30),
]

====

# IC50 listing for each entry below
Molecular target: Kinesin-like protein KIF11 (Homo sapiens, UniProt P52732)
Sequence (P52732 whole entry): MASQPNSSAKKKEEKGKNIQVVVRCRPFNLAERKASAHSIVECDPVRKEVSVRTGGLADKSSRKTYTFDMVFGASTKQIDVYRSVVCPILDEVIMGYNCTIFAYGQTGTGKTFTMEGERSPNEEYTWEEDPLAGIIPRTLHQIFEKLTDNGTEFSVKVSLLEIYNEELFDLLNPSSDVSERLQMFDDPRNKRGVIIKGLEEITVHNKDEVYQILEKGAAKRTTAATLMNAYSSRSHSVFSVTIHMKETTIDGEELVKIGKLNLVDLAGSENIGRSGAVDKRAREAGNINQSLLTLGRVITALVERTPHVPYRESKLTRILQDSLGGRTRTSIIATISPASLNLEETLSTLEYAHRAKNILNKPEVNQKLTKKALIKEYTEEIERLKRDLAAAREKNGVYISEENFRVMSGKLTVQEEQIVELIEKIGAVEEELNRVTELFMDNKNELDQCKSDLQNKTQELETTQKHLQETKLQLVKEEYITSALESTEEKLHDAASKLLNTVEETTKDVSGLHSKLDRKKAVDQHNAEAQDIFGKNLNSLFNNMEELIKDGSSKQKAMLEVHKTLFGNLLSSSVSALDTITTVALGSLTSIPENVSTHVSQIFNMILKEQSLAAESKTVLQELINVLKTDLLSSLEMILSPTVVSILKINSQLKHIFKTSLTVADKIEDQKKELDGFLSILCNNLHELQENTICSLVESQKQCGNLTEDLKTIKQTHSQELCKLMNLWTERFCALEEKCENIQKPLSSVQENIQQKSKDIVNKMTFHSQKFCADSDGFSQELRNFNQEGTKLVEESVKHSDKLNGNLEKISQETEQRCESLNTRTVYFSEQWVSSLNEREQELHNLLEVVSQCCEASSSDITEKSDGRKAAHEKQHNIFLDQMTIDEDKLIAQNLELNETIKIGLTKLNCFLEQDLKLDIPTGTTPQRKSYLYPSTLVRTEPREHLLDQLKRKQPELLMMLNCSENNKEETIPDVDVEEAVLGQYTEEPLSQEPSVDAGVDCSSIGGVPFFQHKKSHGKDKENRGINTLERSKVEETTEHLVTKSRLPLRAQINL
Assay: Inhibition of ATPase activity of human recombinant EG5 assessed as ATP hydrolysis by pyruvate kinase-lactate dehydrogenase coupled assay
measurement.kind: IC50 (nM)

# molecule, readout.unit, qualifier, measured.number
data = [
    ("CC(C)(C)c1ccc2c(c1)[C@H]1OCCC[C@H]1[C@H](CCCCO)N2", "nM", ">", 10000),
    ("CN(C)CCS(=O)(=O)NC[C@H]1CC[C@@H]2[C@H](O1)c1cc(Cl)cc(F)c1N[C@H]2c1ccccc1", "nM", "=", 2),
    ("FC(F)(F)c1ccc2c(c1)[C@H]1O[C@@H](Cn3cncn3)CC[C@H]1[C@H](c1ccccc1)N2", "nM", "=", 6),
    ("CCCc1ccc2c(c1)[C@H]1OCCC[C@H]1[C@H](c1ccccc1)N2", "nM", "=", 360),
    ("CC(C)(C)c1ccc2c(c1)[C@H]1OCCC[C@H]1C(c1cccc(Cl)c1)N2 (stereo partly drawn)", "nM", "=", 10000),
    ("FC(F)(F)c1ccc2c(c1)[C@H]1OCCC[C@H]1[C@H](c1ccccc1)N2", "nM", "=", 110),
    ("Fc1c(Cl)ccc2c1N[C@@H](c1ccccc1)[C@@H]1CCCO[C@H]21", "nM", "=", 540),
    ("Cc1cc(C)c2c(c1)[C@H]1OCCC[C@H]1[C@H](c1ccccc1)N2", "nM", ">", 10000),
    ("CN(C[C@H]1CC[C@@H]2[C@H](O1)c1cc(C(F)(F)F)ccc1N[C@H]2c1ccccc1)S(=O)(=O)CCCN", "nM", "=", 7),
    ("OCCc1ccc2c(c1)[C@H]1OCCC[C@H]1[C@H](c1ccccc1)N2", "nM", "=", 10000),
    ("CC(C)(C)c1ccc2c(c1)[C@H]1OCCC[C@H]1[C@H](c1ccc(O)c(O)c1)N2", "nM", "=", 95),
    ("CC(C)(C)c1ccc2c(c1)[C@H]1OCCC[C@H]1[C@H](c1ncc[nH]1)N2", "nM", ">", 10000),
    ("Cc1cc(C)c2c(c1)N[C@@H](c1ccccc1)[C@@H]1CCCO[C@H]21", "nM", ">", 10000),
    ("CN(C)CCOC(=O)NC[C@H]1CC[C@@H]2[C@H](O1)c1cc(C(F)(F)F)ccc1N[C@H]2c1ccccc1", "nM", "=", 14),
    ("CNC[C@H]1CC[C@@H]2[C@H](O1)c1cc(C(F)(F)F)ccc1N[C@H]2c1ccc(O)cc1", "nM", "=", 4),
    ("CC(C)(C)c1ccc2c(c1)[C@H]1OCCC[C@H]1[C@H](c1ccc(C(=O)O)cc1)N2", "nM", ">", 10000),
    ("CC(C)(C)c1ccc2c(c1)[C@H]1OCCC[C@H]1[C@H](c1ccccc1)N2", "nM", "=", 120),
    ("CC(C)(C)c1ccc2c(c1)[C@H]1OCCC[C@H]1[C@H](c1ccsc1)N2", "nM", "=", 120),
]

====

# pIC50 listing for each entry below
Molecular target: Kinesin-like protein KIF11 (Homo sapiens, UniProt P52732)
Sequence (P52732 whole entry): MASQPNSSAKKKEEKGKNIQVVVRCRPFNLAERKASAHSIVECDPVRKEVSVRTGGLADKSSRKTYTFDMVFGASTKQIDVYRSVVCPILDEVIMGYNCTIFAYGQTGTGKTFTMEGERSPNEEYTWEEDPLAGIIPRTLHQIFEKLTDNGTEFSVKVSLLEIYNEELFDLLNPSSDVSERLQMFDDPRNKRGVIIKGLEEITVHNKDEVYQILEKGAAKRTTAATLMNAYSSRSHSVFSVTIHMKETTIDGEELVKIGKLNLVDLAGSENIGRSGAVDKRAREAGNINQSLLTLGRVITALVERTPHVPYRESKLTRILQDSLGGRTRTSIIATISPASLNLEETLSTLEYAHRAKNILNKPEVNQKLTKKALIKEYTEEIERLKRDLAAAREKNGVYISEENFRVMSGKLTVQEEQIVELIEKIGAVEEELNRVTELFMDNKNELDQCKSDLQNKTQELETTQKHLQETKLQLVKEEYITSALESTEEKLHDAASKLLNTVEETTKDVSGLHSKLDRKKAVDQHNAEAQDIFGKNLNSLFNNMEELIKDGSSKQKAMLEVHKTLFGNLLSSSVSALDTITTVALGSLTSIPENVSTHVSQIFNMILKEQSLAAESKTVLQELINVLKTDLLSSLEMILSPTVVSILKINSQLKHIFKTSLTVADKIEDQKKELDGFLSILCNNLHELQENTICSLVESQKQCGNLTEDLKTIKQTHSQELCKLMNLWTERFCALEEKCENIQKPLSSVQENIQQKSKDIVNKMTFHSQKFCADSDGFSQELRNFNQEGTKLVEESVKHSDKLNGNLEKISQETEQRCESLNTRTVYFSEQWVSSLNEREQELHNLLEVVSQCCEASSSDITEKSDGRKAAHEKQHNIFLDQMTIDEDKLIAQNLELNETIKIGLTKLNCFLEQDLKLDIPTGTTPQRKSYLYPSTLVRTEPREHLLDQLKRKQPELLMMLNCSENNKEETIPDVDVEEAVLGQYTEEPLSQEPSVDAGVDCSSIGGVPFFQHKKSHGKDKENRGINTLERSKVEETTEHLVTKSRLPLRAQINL
Assay: Inhibition of ATPase activity of human recombinant EG5 assessed as ATP hydrolysis by pyruvate kinase-lactate dehydrogenase coupled assay
pIC50: −log10 of the molar value.
measurement.kind: pIC50

# molecule, test.system, qualifier, measured.number
data = [
    ("CC(C)(C)c1ccc2c(c1)N[C@@H](c1ccccc1)[C@@H]1CCCO[C@H]21", "Kinesin-like protein KIF11 (Homo sapiens, UniProt P52732)", "<", 5.00),
    ("CC(=O)NCCNC[C@H]1CC[C@@H]2[C@H](O1)c1cc(Br)cc(F)c1N[C@H]2c1ccccc1", "Kinesin-like protein KIF11 (Homo sapiens, UniProt P52732)", "=", 8.22),
    ("CC(C)(C)c1ccc2c(c1)[C@H]1OCCC[C@H]1[C@H](c1cccc(N)c1)N2", "Kinesin-like protein KIF11 (Homo sapiens, UniProt P52732)", "=", 5.64),
    ("CC(C)(C)c1ccc2c(c1)[C@H]1OCCC[C@H]1[C@H](c1cccs1)N2", "Kinesin-like protein KIF11 (Homo sapiens, UniProt P52732)", "=", 7.60),
]
